Here's a batch of compounds along with measured IC50 for Acetylcholinesterase (AChE) (Homo sapiens, UniProt P22303).
// return numeric value only (unit: nM, not printed)

Would you please look over these solved cases?
>  <COMPOUND>
CCCCCc1cc2c(c(O)c1C(=O)NCCCC)C=CC(C)(CCC=C(C)C)O2 (centres unmarked)

>  <NUMERIC_VALUE>
1000

$$$$
>  <COMPOUND>
CCCCCc1cc2c(c(O)c1C(=O)NC(C)C)C=CC(C)(CCC=C(C)C)O2 (centres unmarked)

>  <NUMERIC_VALUE>
1300

$$$$
>  <COMPOUND>
CCCCCc1cc2c(c(O)c1C(=O)N[C@H]1CCCN(C(=O)OC(C)(C)C)C1)C=CC(C)(CCC=C(C)C)O2 (some centres unmarked)

>  <NUMERIC_VALUE>
52200

$$$$

What value of measured IC50 is listed for CCCCCc1cc2c(c(O)c1C(=O)NC1CCCCC1)C=CC(C)(CCC=C(C)C)O2 (centres unmarked) ?
1200

What do we get for CCCCCc1cc2c(c(O)c1C(=O)Nc1ccc(-c3ccc(F)cc3)cc1)C=CC(C)(CCC=C(C)C)O2 (centres unmarked) ?
13700

Follow-up item: CCCCCc1cc2c(c(O)c1C(=O)NCC(CC)CCCC)C=CC(C)(CCC=C(C)C)O2 (centres unmarked)
1300

Also, CCCCCc1cc2c(c(O)c1C(=O)NC1Cc3ccccc3C1)C=CC(C)(CCC=C(C)C)O2 (centres unmarked) please.
2000

// next record CCCCCc1cc2c(c(O)c1C(=O)NN1CCCCC1)C=CC(C)(CCC=C(C)C)O2 (centres unmarked)
29000

Consider next the compound CCCCCc1cc2c(c(O)c1C(=O)Nc1ccc(C)cc1)C=CC(C)(CCC=C(C)C)O2 (centres unmarked) in the same way.
47700

And the next one, CCCCCc1cc2c(c(O)c1C(=O)NC1CCCCCC1)C=CC(C)(CCC=C(C)C)O2 (centres unmarked) ?
2600

Same read-out for CCCCCCCCCNC(=O)c1c(CCCCC)cc2c(c1O)C=CC(C)(CCC=C(C)C)O2 (centres unmarked) ?
500

Next compound: CCCCCc1cc2c(c(O)c1C(=O)NCCc1ccc(O)cc1)C=CC(C)(CCC=C(C)C)O2 (centres unmarked)
800

Consider next the compound CCCCCc1cc2c(c(O)c1C(=O)N(C)C1CCCC1)C=CC(C)(CCC=C(C)C)O2 (centres unmarked) in the same way.
47700

Same again, this time with CCCCCc1cc2c(c(O)c1C(=O)NC1CCOCC1)C=CC(C)(CCC=C(C)C)O2 (centres unmarked)
46100

Do the same for CCCCCc1cc2c(c(O)c1C(=O)NC/C=C(\C)CCC=C(C)C)C=CC(C)(CCC=C(C)C)O2 (centres unmarked) please
1300

Now give it for C#CCNC(=O)c1c(CCCCC)cc2c(c1O)C=CC(C)(CCC=C(C)C)O2 (centres unmarked) too.
3600
